Below, each entry is listed alongside its reported Percent reduction of Sortilin levels in N2A cells.
# STUDY SYSTEM: mouse Sortilin (mouse, UniProt Q6PHU5 74-825); also: test concentration or dose not given here
# METHOD DESCRIPTION: cell-based or functional assay
Unit % implied. Number only.

Answered cases to consult:
anti-Sortilin antibody S-22 (antibody, V domains shown) VH: QVQLVQSGAEVKKPGSSVKVSCKASGGTFSSYAISWVRQAPGQGLEWMGGIIPIFGTASYAQKFQGRVTITADESTSTAYMELSSLRSEDTAVYYCARQGRKTGYYYYYGMDVWGQGTTVTVSS VL: DIQMTQSPSTLSASVGDRVTITCRASQSISSWLAWYQQKPGKAPKLLIYKASSLESGVPSRFSGSGSGTEFTLTISSLQPDDFATYYCQQADGHITFGGGTKVEIK
87.7
anti-Sortilin antibody S-61 (antibody, V domains shown) VH: QVQLQESGPGLVKPSETLSLTCAVSGYSISSGYYWGWIRQPPGKGLEWIGSIYHSGSTYYNPSLKSRVTISVDTSKNQFSLKLSSVTAADTAVYYCARGSPRFYYGSGSYLDLFDIWGQGTMVTVSS VL: EIVMTQSPATLSVSPGERATLSCRASQSVSSNLAWYQQKPGQAPRLLIYGASTRATGIPARFSGSGSGTEFTLTISSLQSEDFAVYYCQEYLNYPITFGGGTKVEIK
62.7
anti-Sortilin antibody S-21 (antibody, V domains shown) VH: QVQLVQSGAEVKKPGSSVKVSCKASGGTFSSYAISWVRQAPGQGLEWMGSIIPIFGTANYAQKFQGRVTITADESTSTAYMELSSLRSEDTAVYYCARERRYDGYYYYYGMDVWGQGTTVTVSS VL: DIQMTQSPSSLSASVGDRVTITCRASQSISSYLNWYQQKPGKAPKLLIYAASSLQSGVPSRFSGSGSGTDFTLTISSLQPEDFATYYCQQKASLPFTFGGGTKVEIK
71.9

Now look at this one.
input: Give me measured Percent reduction of Sortilin levels in N2A cells, please, for this binder: anti-Sortilin antibody S-14 (antibody, V domains shown) VH: QVQLVQSGAEVKKPGASVKVSCKASGYTFTSYYMSWVRQAPGQGLEWMGIINPSGGSTSYAQKFQGRVTMTRDTSTSTVYMELSSLRSEDTAVYYCARDPSGIAAAGPASRYYYGMDVWGQGTTVTVSS VL: DIQMTQSPSSLSASVGDRVTITCRASQSISSYLNWYQQKPGKAPKLLIYGASSLQSGVPSRFSGSGSGTDFTLTISSLQPEDFATYYCQQHYVGPFTFGGGTKVEIK
output: 58.5
